System: SR leukemia
Assay: NCI-60 one-dose screen, 48 h (100 = growth as untreated, 0 = no growth, -100 = all killed)
Settings: 10 µM unless noted
This is part of a sample that, as a whole, favours compounds with a hit. Of some 83,000 tested, about 20% had one in any assay.
The label True is reserved for growth strictly under 20%; False covers values equal to or above it.

Example cases with answers are listed next.
Record `Nc1c(Cl)cc(N=Nc2ccccc2)cc1Cl` : is its growth strictly below 20%?
False

Record Nc1c2c(nc3ccc(Cl)cc13)CC(c1ccccc1)CC2=O (configuration not stated) : is its growth strictly below 20%?
True

Record `CCc1cccc(CC)c1NC(=O)c1sc2nc3c(cc2c1N)CCCC3` : is its growth strictly below 20%?
True

Record `COc1ccc2nc(-c3cc(-c4cc(OC)c(OC)c(OC)c4)n[nH]3)[nH]c2c1` : is its growth strictly below 20%?
True

Record `N#C/C(=C\c1ccc(-c2cccc(C(F)(F)F)c2)o1)c1nc(-c2ccco2)cs1` : is its growth strictly below 20%?
False

New cases:
Record `COc1ccc(-c2cc(=O)oc3ccc(Cl)cc23)cc1F` : is its growth strictly below 20%?
True

Record `Cn1c(=O)c2c(ncn2CC(=O)Nc2ccc(S(N)(=O)=O)cc2)n(C)c1=O` : is its growth strictly below 20%?
False

Record `O=C(NO)c1ccc(Cn2c(=O)n(-c3ccccc3)c(=O)c3ccccc32)cc1` : is its growth strictly below 20%?
True

Record `COC(=O)[C@]12CC[C@@H](C)[C@H](C)[C@@H]1C1=CC[C@@H]3[C@@](C)(CC#N)C4=C(C[C@@]3(C)[C@]1(C)CC2)OC[C@]4(C)C=O` : is its growth strictly below 20%?
True

Record CC1c2ccccc2N(S(=O)(=O)c2ccccc2)C1C (configuration not stated) : is its growth strictly below 20%?
False

Record `CN1CCN(c2nc(-c3cccc4ccccc34)nc3sc4c(c23)CCCCCC4)CC1` : is its growth strictly below 20%?
False

Record `COC(=O)c1cc(=O)nc(N/N=C/c2ccc(C)cc2)s1` : is its growth strictly below 20%?
False

Record CC(CNc1nc(Nc2ccc(Cl)c(Cl)c2)nc(C(Cl)(Cl)Cl)n1)N(C)C (configuration not stated) : is its growth strictly below 20%?
True

Record `O=[N+]([O-])c1ccc(/C=N\Nc2ccccc2)cc1` : is its growth strictly below 20%?
False

Record `COC(=O)[C@]12CC[C@@H](C)[C@H](C)[C@@H]1C1=CC[C@@H]3[C@@]4(C)CC(=O)[C@H](OC(=O)c5ccco5)[C@@]5(C)COC(=C45)C[C@@]3(C)[C@]1(C)CC2` : is its growth strictly below 20%?
False

Record `COc1ccc(-c2nc(Nc3ccc(-c4nc5ccccc5[nH]4)cc3)nc(N3CCOCC3)n2)cc1` : is its growth strictly below 20%?
True

Record `Fc1cccc(-c2[nH]nc3nc(Nc4cccnc4)sc23)c1` : is its growth strictly below 20%?
True

* * *

System: ACHN renal
Assay: NCI-60 one-dose screen, 48 h
Conditions: 10 µM unless noted
Compounds without any hit were thinned out: in the full panel of roughly 83,000, 20% have a hit. Active and inactive are the calls of the source. The calls were made as follows: active = growth percent below 10; inactive = the rest.
Bench note: report the call from active, inactive

Example cases with answers are listed next.
Per the records of this test, what outcome belongs to `Fc1ccc2[nH]cc(-c3nc(-c4c[nH]c5ncccc45)cs3)c2c1` ?
inactive

Per the records of this test, what outcome belongs to `Oc1ccc(Nc2ccccc2)cc1` ?
inactive

Per the records of this test, what outcome belongs to `COc1cc(-c2nc(-c3ccccc3)c(-c3ccccc3)[nH]2)cc(OC)c1O` ?
inactive

Per the records of this test, what outcome belongs to N#CC1=C(N)Oc2c(sc3c(F)cccc23)C1c1ccc(Cl)cc1 (centres undefined) ?
inactive

Per the records of this test, what outcome belongs to `CC(C)(C)c1nc(-c2ccc(O)c(O)c2)cs1` ?
inactive

New cases:
Per the records of this test, what outcome belongs to `COc1cccc(-c2nn(-c3ccccc3)cc2-c2ccnc(NCCCNS(=O)(=O)c3ccc(Cl)cc3)c2)c1` ?
inactive

Per the records of this test, what outcome belongs to `COc1ccc(-c2nc3c(c(C)nn3-c3ccc(F)cc3)c(=O)[nH]2)cc1` ?
active

Per the records of this test, what outcome belongs to `Cn1cc(-c2csc(-c3c[nH]c4ccc(F)cc34)n2)c2cccnc21` ?
inactive

Per the records of this test, what outcome belongs to NC(Cc1ccc(O)cc1)C(=O)N/N=C/c1ccccc1O (centres undefined) ?
inactive

Per the records of this test, what outcome belongs to `NCCn1cc(-c2nc(-c3c[nH]c4ncccc34)cs2)c2ccccc21` ?
inactive

Per the records of this test, what outcome belongs to `CCCCC[C@H]1CC=C2C(=O)C=C[C@@H]2CC=CCCCC(=O)O[C@@H](CCCCC)CC=C2C(=O)C=C[C@@H]2CC=CCCCC(=O)O[C@@H](CCCCC)CC=C2C(=O)C=C[C@@H]2CC=CCCCC(=O)O1` ?
active

Per the records of this test, what outcome belongs to `CC1(C)C(=O)/C(=C\c2ccccn2)C[C@]2(C)[C@H]3CC[C@@H]4[C@@H](C(=O)/C=C/c5ccccn5)CC[C@@]4(C)[C@]3(C)CC[C@@H]12` ?
active

Per the records of this test, what outcome belongs to `COc1cccc(-c2nn(-c3ccccc3)cc2-c2ccnc(NCCCNS(=O)(=O)c3cccc(F)c3)c2)c1` ?
inactive

Per the records of this test, what outcome belongs to `Nc1c(C(=O)Nc2cccc(Br)c2)sc2nc3c(cc12)C(=O)CCC3` ?
inactive

Per the records of this test, what outcome belongs to `CC(C)/C=C/CC[C@](C)(O)[C@H]1CC[C@]2(C)[C@@H]1CC[C@@H]1[C@@]3(C)C/C(=C/c4cccc(C(F)(F)F)c4)C(=O)C(C)(C)[C@@H]3CC[C@]12C` ?
inactive

Per the records of this test, what outcome belongs to `C[C@]12CC[C@@H]3c4ccc(O)cc4CC[C@H]3[C@@H]1C[C@H](O)[C@@H]2O` ?
inactive

Per the records of this test, what outcome belongs to `Fc1ccc(NCc2nnc(-c3ccc(Cl)cc3)o2)cc1` ?
inactive

Per the records of this test, what outcome belongs to `Oc1ccccc1/C=N\NC(=S)Nc1ccc(F)cc1` ?
inactive

Per the records of this test, what outcome belongs to `CCc1ccc(-c2ccc(Nc3ccccc3)nn2)cc1S(N)(=O)=O` ?
inactive

* * *

Test system: HCT-15 colon
Experiment: NCI-60 one-dose screen, 48 h (100 = growth as untreated, 0 = no growth, -100 = all killed)
Settings: 10 µM unless noted
The panel holds about 83,000 compounds, 20% with a hit somewhere; the sample as a whole holds those more often.
Parameter growth: see the listing below.
Return type: number; implicit unit %.

State the recorded growth for this entry: CC1(C)NC2=C(C(Nc3cccnc3)N1)C(c1ccc([N+](=O)[O-])cc1)C(C(=O)c1ccc(N=[N+]=[N-])cc1)O2 (configuration not stated)
104

State the recorded growth for this entry: O=C1C=C(C(O)c2ccc(O)cc2)C(=O)c2ccccc21 (configuration not stated)
94.9

State the recorded growth for this entry: COc1cc(/C=C2\C(=O)N(CC(O)COc3cc(O)c4c(=O)cc(-c5ccccc5)oc4c3)c3ccccc32)cc(OC)c1O (configuration not stated)
59.1

State the recorded growth for this entry: `Cc1ccc(-c2nn(Cc3cn(-c4cc(C)nc5ccccc45)nn3)c3ncnc(N)c23)cc1`
57

State the recorded growth for this entry: `Cn1cc(-c2csc(-c3cn(CCCN4CCCCC4)c4ccccc34)n2)c2cccnc21`
-78.2

* * *

Parameter growth: see the listing below.
System: MALME-3M melanoma
Assay: NCI-60 one-dose screen, 48 h (100 = growth as untreated, 0 = no growth, -100 = all killed)
Conditions: 10 µM unless noted
Description: Cells are grown in 96 well plates and exposed to the test compound for 48 hours. Compounds are tested at a single concentration, which is 10^-5 M for most compounds. The reported endpoint is percent growth (GI% or GIPRCNT), where numbers from 0 - 100% represent growth inhibition, and numbers from -100% - 0 represent cell death. For example, a value of 40 represents 60% growth inhibition. A value of 0 means no net growth occurred over the course of the experiment. […]
Compounds without any hit were thinned out: in the full panel of roughly 83,000, 20% have a hit. The source made the active and inactive calls. The calls were made as follows: active = growth percent below 10; inactive = the rest.

State the recorded growth for this entry: `C[N+](C)(CCCCCC[N+](C)(C)C1c2ccccc2-c2ccccc21)C1c2ccccc2-c2ccccc21`
104% (inactive)

State the recorded growth for this entry: `CC(C)(C)n1cc(-c2ccnc(NCCCNS(=O)(=O)c3ccc(Cl)cc3)c2)c(-c2cccc(F)c2)n1`
73.8% (inactive)

State the recorded growth for this entry: `C#CCn1c2c(c3ccccc31)C[C@]1(C)[C@H]3CC[C@@H]4[C@@H]5C(=CCC[C@H]5C(=C)C)CC[C@@]4(C)[C@]3(C)CC[C@H]1C2(C)C`
110% (inactive)

New cases:
State the recorded growth for this entry: `CCN(CC)c1ccc(/C=C/c2cc(C)c3ccccc3n2)cc1`
59.4% (inactive)

The origin of these recorded values is PubChem BioAssay (NCI).
